Listed here: items and their measured z-score.
assay: fission yeast growth modulation, primary screen, strain 972, OD600, 24 h, no modulator (AID 1090);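 also: basal condition with compound alone and no growth modifier present; test concentration not given here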; details: S. pombe 972 growth, higher = more signal, called active from +8 up or from −8 down

{"compound": "C=CC[C@H](OC(=O)Nc1ccc(SC)cc1)c1ccc(O)c(F)c1", "z-score": -19.7}
{"compound": "Cc1ccc(S[C@]2(C(=O)NCC(C)C)CC(=O)N(C(C)C)[C@@H]2c2ccc(CO)cc2I)cc1", "z-score": -2.56}
{"compound": "COc1ccc(C#Cc2ccc3c(c2)[C@]2(C(=O)N3)[C@H](c3ccccc3OCCO)N3[C@H](c4ccccc4)[C@H](c4ccccc4)OC(=O)[C@H]3[C@@H]2C(=O)NC[C@H](O)c2ccccc2)cc1", "z-score": 2.18}
{"compound": "COC(=O)C1=CC(CCCO)=CC(c2ccc(CN3CCCC3)cc2)N(C)C=C1C(=O)OC (configuration not stated)", "z-score": 0.0939}
{"compound": "COC(=O)C(CC#Cc1ccc2c(c1)[C@]1(C(=O)N2)[C@H](c2ccccc2OCCO)N2[C@H](c3ccccc3)[C@H](c3ccccc3)OC(=O)[C@H]2[C@@H]1C(=O)N1CCN(c2ncccn2)CC1)C(=O)OC", "z-score": 1.28}
{"compound": "COc1ccc(CCNC(=O)[C@@H]2c3ccccc3C(=O)N(Cc3cc(F)cc(C(F)(F)F)c3)[C@H]2c2ccc(CO)cc2)cc1", "z-score": -0.131}
{"compound": "[N-]=[N+]=NCc1ccccc1[C@H]1OC(c2ccc(OCCCO)cc2)=N[C@@]1(Cc1ccccc1N=[N+]=[N-])C(N)=O", "z-score": -0.678}
